Molecular target: T1, PUF4 RNA-binding domain (Saccharomyces cerevisiae, UniProt P25339 537-888)
T1 sequence: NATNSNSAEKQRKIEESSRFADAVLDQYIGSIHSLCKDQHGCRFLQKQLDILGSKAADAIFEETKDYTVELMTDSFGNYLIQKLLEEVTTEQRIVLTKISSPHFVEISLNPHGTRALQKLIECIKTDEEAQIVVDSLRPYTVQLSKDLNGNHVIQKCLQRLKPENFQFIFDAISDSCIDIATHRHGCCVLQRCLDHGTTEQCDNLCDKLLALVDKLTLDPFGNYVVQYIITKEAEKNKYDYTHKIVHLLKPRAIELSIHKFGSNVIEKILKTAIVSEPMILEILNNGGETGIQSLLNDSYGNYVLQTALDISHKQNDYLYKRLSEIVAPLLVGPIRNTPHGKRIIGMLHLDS
Assay: Mg; RNA-MaP; 20 mM Na-HEPES pH 7.4, 30 mM KOAc, 0.75 mM MgCl2, 0.1% Tween-20, 5% glycerol, 0.1 mg/mL BSA, 2 mM DTT; 25 C; 0.0125-409.6 nM protein
Settings: tags: N-His6-TEV cleaved; C-SNAP kept, Cy3B-labelled; label: tethered on chip by stalled RNA polymerase
pKd: −log10 of the molar value.
Entries annotated with measured pKd

Request: What does the record list as pKd for UCUCUUCGUUUAUUAUCUCUU (ssRNA) [Ib_S1_P4E.1_K4.1_C4.1_H4.1_[T1C]_[A4T]_A4.1_F4.1_T4.1] ?
Result: < 5.64

Request: What does the record list as pKd for UCUCUUUGUAUCGACUCUCUU (ssRNA) [Ic_S1_P4E.1_K4.1_C4.1_H4.1_A4.1_[A6C]_[T7G]_F4.1_[T8A]_[A9C]_T4.1] ?
Result: < 5.64

Request: What does the record list as pKd for ACAAACAGACACUUAUUAGAACAAAC (ssRNA) [Id_ii_S3_P5E.4_K5.3_C5.2_[C-2A]_[T-1G]_H5.3_A5.1_F5.1_T5.2_[T11G]] ?
Result: < 5.64

Request: What does the record list as pKd for ACAAACAGUAUUUUUAACAAAC (ssRNA) [Ib_S3_P5E.1_K5.1_C5.1_H5.1_[T1A]_A5.1_[A7T]_F5.1_T5.1] ?
Result: < 5.64
